System: JHU-022 (Oral Cavity Carcinoma)
method: Bliss excess, mean over the matrix (fraction); higher = more synergy

| compound | Bliss excess |
| --- | --- |
| N#Cc1cnc(Nc2cc(NC[C@H]3CNCCO3)c(C(F)(F)F)cn2)cn1 [SRA737] + Nc1ccn([C@@H]2O[C@H](CO)[C@@H](O)C2(F)F)c(=O)n1 [Gemcitabine] (first compound max 10 µM, 7x7, partner max 0.3 µM) | 0.008 |
| COc1cccc(OCCCN)c1-c1cc(Nc2cnc(C#N)cn2)n[nH]1 [Prexasertib] + O=C(c1cc(Cc2n[nH]c(=O)c3ccccc23)ccc1F)N1CCN(C(=O)C2CC2)CC1 [Olaparib] (first compound max 1 µM, 7x7, partner max 10 µM) | -0.0537 |
| C[C@@H]1COCCN1c1cc(C2([S@](C)(=N)=O)CC2)nc(-c2ccnc3[nH]ccc23)n1 [AZD6738] + Nc1ccn([C@@H]2O[C@H](CO)[C@@H](O)C2(F)F)c(=O)n1 [Gemcitabine] (first compound max 10 µM, 7x7, partner max 0.3 µM) | 0.0407 |
| Cc1nc(Nc2ncc(C(=O)Nc3c(C)cccc3Cl)s2)cc(N2CCN(CCO)CC2)n1 [Dasatinib] + CC(=O)Nc1cccc(-n2c(=O)n(C3CC3)c(=O)c3c(Nc4ccc(I)cc4F)n(C)c(=O)c(C)c32)c1 [Trametinib] (first compound max 2 µM, 7x7, partner max 1 µM) | -0.0483 |

###

Test system: 22RV1 (Prostate Carcinoma)
method: combination Emax (second highest fraction inhibited in the dose matrix, 72 h); higher = more inhibition; extreme values may be limits of the assay
Respond with TRUE for combination Emax values of 0.5 and above, FALSE for values below.

| compound | test_system | category |
| --- | --- | --- |
| CC1(C)CCC(CN2CCN(c3ccc(C(=O)NS(=O)(=O)c4ccc(NCC5CCOCC5)c([N+](=O)[O-])c4)c(Oc4cnc5[nH]ccc5c4)c3)CC2)=C(c2ccc(Cl)cc2)C1 [Venetoclax] + Cc1cc2ncnn2cc1Nc1ncc2c(n1)n(C1CCOCC1)c(=O)n2C [AZD7648] (first compound max 1 µM, 7x7, partner max 10 µM) | 22RV1 (Prostate Carcinoma) | FALSE |
| C[C@@H](Oc1cc(-c2cnn(C3CCNCC3)c2)cnc1N)c1c(Cl)ccc(F)c1Cl [Crizotinib] + Cn1cnc2c(F)c(Nc3ccc(Br)cc3Cl)c(C(=O)NOCCO)cc21 [Selumetinib] (first compound max 10 µM, 7x7, partner max 10 µM) | 22RV1 (Prostate Carcinoma) | TRUE |
| C[C@@H](c1ccc2nccn2c1)n1nnc2ncc(-c3cnn(C)c3)nc21 [Savolitinib] + Cc1c2c(nn1C)CSCc1cc(n(C)n1)CSc1cc(c3ccccc3c1)OCCCc1c(C(=O)O)n(C)c3c-2c(Cl)ccc13 [AZD5991] (first compound max 1 µM, 7x7, partner max 1 µM) | 22RV1 (Prostate Carcinoma) | FALSE |
| Cc1c2c(nn1C)CSCc1cc(n(C)n1)CSc1cc(c3ccccc3c1)OCCCc1c(C(=O)O)n(C)c3c-2c(Cl)ccc13 [AZD5991] + C[C@@H](Nc1cc(F)cc(F)c1)c1cc(C(=O)N(C)C)cc2c(=O)cc(N3CCOCC3)oc12 [AZD8186] (first compound max 1 µM, 7x7, partner max 3 µM) | 22RV1 (Prostate Carcinoma) | FALSE |
| CS(=O)(=O)CCNCc1ccc(-c2ccc3ncnc(Nc4ccc(OCc5cccc(F)c5)c(Cl)c4)c3c2)o1 [Lapatinib] + C[C@@H](Oc1cc(-c2cnn(C3CCNCC3)c2)cnc1N)c1c(Cl)ccc(F)c1Cl [Crizotinib] (first compound max 10 µM, 7x7, partner max 10 µM) | 22RV1 (Prostate Carcinoma) | TRUE |
| C=CCn1c(=O)c2cnc(Nc3ccc(N4CCN(C)CC4)cc3)nc2n1-c1cccc(C(C)(C)O)n1 [AZD1775] + CCc1c2c(nc3ccc(O)cc13)-c1cc3c(c(=O)n1C2)COC(=O)[C@]3(O)CC [SN-38] (first compound max 1 µM, partner max 0.3 µM) | 22RV1 (Prostate Carcinoma) | TRUE |

###

System: HT55 (Colorectal Carcinoma)
method: combination Emax (second highest fraction inhibited in the dose matrix, 72 h); higher = more inhibition; extreme values may be limits of the assay
Respond with 1 for combination Emax values of 0.4 and above, -1 for values below.

| compound | category |
| --- | --- |
| CN(CCO)CC[C@H](CSc1ccccc1)Nc1ccc(S(=O)(=O)NC(=O)c2ccc(N3CCC([C@@H](O)c4ccccc4-c4ccc(Cl)cc4)CC3)cc2)cc1S(=O)(=O)C(F)(F)F [AZD4320] + CCN(CCO)CCCOc1ccc2c(Nc3cc(CC(=O)Nc4cccc(F)c4)[nH]n3)ncnc2c1 [AZD2811] (first compound max 1 µM, 7x7, partner max 1 µM) | -1 |
| CC(=O)c1c(C)c2cnc(Nc3ccc(N4CCNCC4)cn3)nc2n(C2CCCC2)c1=O [Palbociclib] + Cn1cnc2c(F)c(Nc3ccc(Br)cc3Cl)c(C(=O)NOCCO)cc21 [Selumetinib] (first compound max 10 µM, 7x7, partner max 10 µM) | 1 |
| COc1cccc(OCCCN)c1-c1cc(Nc2cnc(C#N)cn2)n[nH]1 [Prexasertib] + C[C@@H]1COCCN1C2=NC(=NC(=C2)C3(CC3)[S@](=N)(=O)C)C4=C5C=CNC5=NC=C4 [AZD6738] (first compound max 1 µM, 7x7, partner max 10 µM) | 1 |
| CN(CCO)CC[C@H](CSc1ccccc1)Nc1ccc(S(=O)(=O)NC(=O)c2ccc(N3CCC([C@@H](O)c4ccccc4-c4ccc(Cl)cc4)CC3)cc2)cc1S(=O)(=O)C(F)(F)F [AZD4320] + Cn1cnc2c(F)c(Nc3ccc(Br)cc3Cl)c(C(=O)NOCCO)cc21 [Selumetinib] (first compound max 1 µM, 7x7, partner max 3 µM) | 1 |
| COc1nnc2ccc(N3CCC(c4ccc(OCCN5CCN(C)C(=O)[C@H]5C)cc4)CC3)nn12 [AZD5153] + CC1(C)CCC(CN2CCN(c3ccc(C(=O)NS(=O)(=O)c4ccc(NCC5CCOCC5)c([N+](=O)[O-])c4)c(Oc4cnc5[nH]ccc5c4)c3)CC2)=C(c2ccc(Cl)cc2)C1 [Venetoclax] (first compound max 1 µM, 7x7, partner max 1 µM) | 1 |
| Cc1cc2ncnn2cc1Nc1ncc2c(n1)n(C1CCOCC1)c(=O)n2C [AZD7648] + O=C(c1cc(Cc2n[nH]c(=O)c3ccccc23)ccc1F)N1CCN(C(=O)C2CC2)CC1 [Olaparib] (first compound max 10 µM, 7x7, partner max 10 µM) | -1 |

###

Tested on: JIMT-1 (Breast Carcinoma)
method: Bliss excess, mean over the matrix (fraction); higher = more synergy
measured_metric: Bliss excess

| compound | test_system | quantitative_readout |
| --- | --- | --- |
| CN(CCO)CC[C@H](CSc1ccccc1)Nc1ccc(S(=O)(=O)NC(=O)c2ccc(N3CCC([C@@H](O)c4ccccc4-c4ccc(Cl)cc4)CC3)cc2)cc1S(=O)(=O)C(F)(F)F [AZD4320] + Cn1cnc2c(F)c(Nc3ccc(Br)cc3Cl)c(C(=O)NOCCO)cc21 [Selumetinib] (first compound max 1 µM, 7x7, partner max 3 µM) | JIMT-1 (Breast Carcinoma) | 0.0367 |
| Cc1c2c(nn1C)CSCc1cc(n(C)n1)CSc1cc(c3ccccc3c1)OCCCc1c(C(=O)O)n(C)c3c-2c(Cl)ccc13 [AZD5991] + CCN(CCO)CCCOc1ccc2c(Nc3cc(CC(=O)Nc4cccc(F)c4)[nH]n3)ncnc2c1 [AZD2811] (first compound max 1 µM, 7x7, partner max 1 µM) | JIMT-1 (Breast Carcinoma) | 0.0203 |

###

System: UACC-812 (Breast Carcinoma)
method: Bliss excess, mean over the matrix (fraction); higher = more synergy

| compound | Bliss excess |
| --- | --- |
| Cc1cc2ncnn2cc1Nc1ncc2c(n1)n(C1CCOCC1)c(=O)n2C [AZD7648] + C[C@@H]1COCCN1C2=NC(=NC(=C2)C3(CC3)[S@](=N)(=O)C)C4=C5C=CNC5=NC=C4 [AZD6738] (first compound max 10 µM, 7x7, partner max 10 µM) | 0.0254 |
| CC1(C)CCC(CN2CCN(c3ccc(C(=O)NS(=O)(=O)c4ccc(NCC5CCOCC5)c([N+](=O)[O-])c4)c(Oc4cnc5[nH]ccc5c4)c3)CC2)=C(c2ccc(Cl)cc2)C1 [Venetoclax] + Cc1cc2ncnn2cc1Nc1ncc2c(n1)n(C1CCOCC1)c(=O)n2C [AZD7648] (first compound max 1 µM, 7x7, partner max 10 µM) | 0.0286 |
| COc1nnc2ccc(N3CCC(c4ccc(OCCN5CCN(C)C(=O)[C@H]5C)cc4)CC3)nn12 [AZD5153] + CC1(C)CCC(CN2CCN(c3ccc(C(=O)NS(=O)(=O)c4ccc(NCC5CCOCC5)c([N+](=O)[O-])c4)c(Oc4cnc5[nH]ccc5c4)c3)CC2)=C(c2ccc(Cl)cc2)C1 [Venetoclax] (first compound max 1 µM, 7x7, partner max 1 µM) | -0.0947 |
